// data source = paper PMC12195941

assay: Validation stability of TFV and TFVDP in spiked whole blood and sample extracts; type: in vitro ADME; details: QC Low (n = 4); the values are: stability, % of nominal
Give Stability, Blood 4 h room temp. for every item shown.
Answers are plain numbers, in %.

C[C@H](Cn1cnc2c(N)ncnc21)OCP(=O)(O)O ... 102

Now for another entry.
In: So what's the measured Stability, Blood 4 h room temp. for this one? C[C@H](Cn1cnc2c(N)ncnc21)OCP(=O)(O)OP(=O)(O)OP(=O)(O)O [TFVDP, tenofovir diphosphate]
Out: 105

* * *

assay: Validation stability of TFV and TFVDP in spiked whole blood and sample extracts; format: in vitro ADME; details: QC Low (n = 4); the values are: stability, % of nominal
READOUT: Stability, Blood freeze-thaw 5 cycles (%)
Answers are plain numbers, in %.

C[C@H](Cn1cnc2c(N)ncnc21)OCP(=O)(O)O [TFV, Tenofovir] ... 114

Now for another entry.
In: So what's the measured Stability, Blood freeze-thaw 5 cycles for this one? C[C@H](Cn1cnc2c(N)ncnc21)OCP(=O)(O)OP(=O)(O)OP(=O)(O)O [TFVDP, tenofovir diphosphate]
Out: 111

* * *

Give Stability, Blood freeze-thaw 5 cycles for every item shown.
Assay: Validation stability of TFV and TFVDP in spiked whole blood and sample extracts
Type: in vitro ADME
Conditions: QC High (n = 4); the values are: stability, % of nominal
Method: Samples were stable for 1 month at −30 °C, for 5 freeze–thaw cycles and for 24 h at 10 °C in the autosampler. Benchtop stability was evaluated for 4 h at room temperature with blood samples spiked with TFVDP only and the results were within 96.9 and 104.714 from nominal in stabilized conditions, while in the absence of the phosphatase inhibitor the degradation was, on average, 85% at all tested concentrations. […]
One number for each entry, in %.

C[C@H](Cn1cnc2c(N)ncnc21)OCP(=O)(O)O ... 111

In: So what's the measured Stability, Blood freeze-thaw 5 cycles for this one? C[C@H](Cn1cnc2c(N)ncnc21)OCP(=O)(O)OP(=O)(O)OP(=O)(O)O [TFVDP, tenofovir diphosphate]
Out: 95.4

* * *

Give Stability, Blood at −30 °C for 1 month for every item shown.
Test: Validation stability of TFV and TFVDP in spiked whole blood and sample extracts
Type: in vitro ADME
Conditions: QC Low (n = 4; TFV 0.75, TFVDP 1.5 ng/mL), blood diluted 1:5 with 1.25% ammonia; the values are: stability, % of nominal
Description: Samples were stable for 1 month at −30 °C, for 5 freeze–thaw cycles and for 24 h at 10 °C in the autosampler. Benchtop stability was evaluated for 4 h at room temperature with blood samples spiked with TFVDP only and the results were within 96.9 and 104.714 from nominal in stabilized conditions, while in the absence of the phosphatase inhibitor the degradation was, on average, 85% at all tested concentrations. […]
Give bare numbers, in %.

C[C@H](Cn1cnc2c(N)ncnc21)OCP(=O)(O)OP(=O)(O)OP(=O)(O)O [TFVDP, tenofovir diphosphate] ... 92.5

Now for another entry.
In: So what's the measured Stability, Blood at −30 °C for 1 month for this one? C[C@H](Cn1cnc2c(N)ncnc21)OCP(=O)(O)O [TFV, Tenofovir]
Out: 104
